Target: T1, human IL-10 receptor (hIL-10R alpha and beta chains) on HEK-Blue IL-10 reporter cells (human, UniProt Q13651 22-578; Q08334 20-325)
T1 sequence 1: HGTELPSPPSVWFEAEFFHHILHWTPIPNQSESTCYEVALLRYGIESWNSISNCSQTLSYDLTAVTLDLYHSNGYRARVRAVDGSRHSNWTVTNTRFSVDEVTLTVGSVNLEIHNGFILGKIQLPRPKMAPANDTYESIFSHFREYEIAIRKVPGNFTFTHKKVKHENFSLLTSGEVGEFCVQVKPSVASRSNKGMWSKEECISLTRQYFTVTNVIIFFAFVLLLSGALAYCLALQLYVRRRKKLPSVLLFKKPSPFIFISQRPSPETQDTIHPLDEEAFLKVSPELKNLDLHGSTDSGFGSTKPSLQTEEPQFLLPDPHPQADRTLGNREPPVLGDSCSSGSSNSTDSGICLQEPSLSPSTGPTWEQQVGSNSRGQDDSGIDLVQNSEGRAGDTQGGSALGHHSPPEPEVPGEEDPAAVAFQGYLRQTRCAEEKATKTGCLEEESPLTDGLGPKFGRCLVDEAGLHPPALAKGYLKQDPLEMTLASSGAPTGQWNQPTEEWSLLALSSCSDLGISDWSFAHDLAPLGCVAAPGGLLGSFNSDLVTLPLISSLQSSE
T1 sequence 2: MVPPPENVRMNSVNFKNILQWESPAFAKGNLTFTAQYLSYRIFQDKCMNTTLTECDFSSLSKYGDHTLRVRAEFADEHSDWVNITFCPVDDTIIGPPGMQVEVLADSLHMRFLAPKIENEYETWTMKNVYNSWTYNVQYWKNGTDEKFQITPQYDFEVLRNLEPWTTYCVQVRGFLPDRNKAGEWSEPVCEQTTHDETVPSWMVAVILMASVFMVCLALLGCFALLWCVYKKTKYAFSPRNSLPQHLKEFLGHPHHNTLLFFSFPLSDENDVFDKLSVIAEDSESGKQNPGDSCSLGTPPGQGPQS
Experiment: cell-based or functional assay
metric-name: Abs 630 (25 nM) (Abs 630)
# value in Abs 630; strip the unit string

[[record]]
binder = "IL10R binding molecule of SEQ ID NO: 304 (bispecific antibody) QVQLQESGGGSVQAGGSLRLSCAASGYSNCSYDMTWYRQAPGKEREFVSAIHSDGSTRYADSVKGRFFISQDNAKNTVYLQMNSLKPEDTAMYYCKTDPLHCRAHGGSWYSVRANYWGQGTQVTVSSGGGSQVQLQESGGGSVQTGGSLRLSCAASGYTYLRGCMGWFRQAPGKEREGVAVMDVVGDRRSYIDSVKGRFTISRDNAANSVYLQMDNLKPEDTAMYYCTAGPNCVGWRSGLDYWGQGTQVTVSSASHHHHHH"
meas_value = 1.96

[[record]]
binder = "IL10R binding molecule of SEQ ID NO: 303 (bispecific antibody) QVQLQESGGGSVQAGGSLRLSCAASGYSNCSYDMTWYRQAPGKEREFVSAIHSDGSTRYADSVKGRFFISQDNAKNTVYLQMNSLKPEDTAMYYCKTDPLHCRAHGGSWYSVRANYWGQGTQVTVSSGGGSQVQLQESGGGSVQAGGSLRLSCAASGYSYSSYCMGWFRQAPGKEREGVATIDSDGMTRYADSVKGRFTISKDNAKNTLYLQMNSLKPEDTAMYYCAAPLYDCDSGAVGRNPPYWGQGTQVTVSSASHHHHHH"
meas_value = 1.92


Please give the measured Abs 630 (25 nM) for this binder: IL10R binding molecule of SEQ ID NO: 292 (bispecific antibody) QVQLQESGGGSVQAGGSLRLSCGASGYTYSSYCMGWFRQVPGKEREGVAVIDSDGSTSYADSVKGRFTISKDNGKNTLYLQMNSLKPEDTAMYYCAADLGHYRPPCGVLYLGMDYWGKGTQVTVSSGGGSQVQLQESGGGSVQAGGSLRLSCAASGYTYSSYCMGWFRQAPGKEREGVAHIDSDGSTSYADSVKGRFTISKDNAKNTLYLQMNSLKPEDTAMYYCAADPIPGPGYCDGGPNKYWGQGTQVTVSSASHHHHHH
0.78
